# reported In vitro antifungal activity, 50% effective doses (EC50); entries follow
System: Parastagonospora nodorum
Experiment: Antifungal activity in vitro (growth inhibition, 96-well absorbance)
Format: cell-based
Settings: 20° C., 72 hours (96 or 120 when necessary)
Give just the numeric value; ng/mL need not be written.

Qu. Give the value of In vitro antifungal activity, 50% effective doses (EC50) reported for the following: `C[C@H](NC(=O)c1cccc(NC=O)c1O)C(=O)O[C@@H](C)C(c1ccc(F)cc1)c1ccc(F)cc1`
Ans. 10

Qu. // fetch In vitro antifungal activity, 50% effective doses (EC50) given entry CCCCC(CC)COC(=O)[C@H](C)OC(=O)[C@H](C)NC(=O)c1cccc(NC=O)c1O (stereo partly drawn)
Ans. 6

Qu. Supply In vitro antifungal activity, 50% effective doses (EC50) value. Item: C[C@H](NC(=O)c1ccccc1O)C(=O)O[C@@H](C)C(c1ccc(F)cc1)c1ccc(F)cc1 [CR2, reference compound]
Ans. 240

Qu. Give reported In vitro antifungal activity, 50% effective doses (EC50) value for `C[C@H](NC(=O)c1cccc(NC=O)c1O)C(=O)O[C@@H](C)C(=O)OCc1ccccc1`
Ans. 8

Qu. Tell me its In vitro antifungal activity, 50% effective doses (EC50) given `CCCCOC(=O)[C@H](C)OC(=O)[C@H](C)NC(=O)c1cccc(NC=O)c1O` as the entry.
Ans. 9

Attention now turns to another entry.
Qu. Fill in In vitro antifungal activity, 50% effective doses (EC50) for record CCCCCCCC(C)OC(=O)[C@H](C)NC(=O)c1cccc(NC=O)c1O (stereo partly drawn)
Ans. 1

====

Tested on: Bipolaris sorokiniana
Assay: Antifungal activity in vitro (growth inhibition, 96-well absorbance)
Type: cell-based
Conditions: 20° C., 72 hours (96 or 120 when necessary)
Listed below: In vitro antifungal activity, 50% effective doses (EC50) values for each entry.
Kindly provide the numeric value in mg/L only, without the unit symbol.

Qu. Please indicate recorded In vitro antifungal activity, 50% effective doses (EC50) of `CCCCOC(=O)[C@H](C)OC(=O)[C@H](C)NC(=O)c1cccc(NC=O)c1O` measured with Bipolaris sorokiniana.
Ans. 8.0

Qu. Please respond with reported In vitro antifungal activity, 50% effective doses (EC50) (system Bipolaris sorokiniana) for CCCCCCCC(C)OC(=O)[C@H](C)NC(=O)c1cccc(NC=O)c1O (stereo partly shown) .
Ans. 2.68

Qu. # assay system Bipolaris sorokiniana: give In vitro antifungal activity, 50% effective doses (EC50) of `C[C@H](NC(=O)c1cccc(NC=O)c1O)C(=O)O[C@@H](C)C(c1ccc(F)cc1)c1ccc(F)cc1`
Ans. 0.11

Qu. Retrieve In vitro antifungal activity, 50% effective doses (EC50) on Bipolaris sorokiniana; query C[C@H](NC(=O)c1ccccc1O)C(=O)O[C@@H](C)C(c1ccc(F)cc1)c1ccc(F)cc1 [CR2, reference compound]
Ans. 3.6

====

Catalogue of In vitro antifungal activity, 50% effective doses (EC50) values
Tested on: Phytophthora infestans
Assay type: cell-based
Details: Phytophthora infestans; 20° C., 72 hours (96 or 120 when necessary)
All answers are understood in µg/mL, so give the number only.

Below: 2 molecules and their reported In vitro antifungal activity, 50% effective doses (EC50).
Qu. Consider the molecule CCCCCCCC(C)OC(=O)[C@H](C)NC(=O)c1cccc(NC=O)c1O (some centres unmarked) and give its recorded In vitro antifungal activity, 50% effective doses (EC50).
Ans. 0.04

Qu. Please supply the value of reported In vitro antifungal activity, 50% effective doses (EC50) for the item `CCCCOC(=O)[C@H](C)OC(=O)[C@H](C)NC(=O)c1cccc(NC=O)c1O`
Ans. 1.49

***
Qu. Determine its reported In vitro antifungal activity, 50% effective doses (EC50): `C[C@H](NC(=O)c1cccc(NC=O)c1O)C(=O)O[C@@H](C)C(c1ccc(F)cc1)c1ccc(F)cc1`
Ans. 0.05

Qu. Identify In vitro antifungal activity, 50% effective doses (EC50) associated with the molecule CCCCC(CC)COC(=O)[C@H](C)OC(=O)[C@H](C)NC(=O)c1cccc(NC=O)c1O (some centres unmarked)
Ans. 1.62

Qu. Name the recorded In vitro antifungal activity, 50% effective doses (EC50) of the item `C[C@H](NC(=O)c1cccc(NC=O)c1O)C(=O)O[C@@H](C)C(=O)OCc1ccccc1` in your answer.
Ans. 1.14

====

Each record here notes measured P7Activity.
Tested on: Plasmopara viticola
Test: Preventive activity (7 days) against Plasmopara viticola on vines
Format: in vivo
Details: 125 ppm; leaf spray, inoculation 7 days after treatment; vine Merlot; reduction of diseased leaf area vs untreated (100=complete effectiveness)
Return type: number; implicit unit %.

Qu. Given COc1ccnc(C(=O)N[C@@H](C)C(=O)O[C@@H](C)C(c2ccc(F)cc2)c2ccc(F)cc2)c1OC(C)=O [CR1, Florypicoxamid, reference compound] , report its P7Activity on Plasmopara viticola.
Ans. 40

Continuing:
Qu. Tell me its P7Activity on Plasmopara viticola: `CC(C)C(=O)OCOc1c(NC=O)cccc1C(=O)N[C@@H](C)C(=O)O[C@@H](C)C(c1ccc(F)cc1)c1ccc(F)cc1`
Ans. 100

Qu. Under Plasmopara viticola, report P7Activity for CCCCCCCC(C)OC(=O)[C@H](C)NC(=O)c1cccc(NC=O)c1O (some centres unmarked)
Ans. 100

Qu. Give the observed P7Activity of `CCCCCCC[C@H](C)OC(=O)[C@H](C)NC(=O)c1cccc(NC=O)c1O` for Plasmopara viticola.
Ans. 100

Qu. Give reported P7Activity for `C[C@H](NC(=O)c1cccc(NC=O)c1O)C(=O)O[C@@H](C)C(c1ccc(F)cc1)c1ccc(F)cc1` (Plasmopara viticola)
Ans. 100

====

Test system: Phakopsora pachyrhizi
Test: Preventive fungicidal activity (5 days) against Phakopsora pachyrhizi on soya
Format: in vivo
Settings: 15 ppm; soya Zora; inoculation 5 days after treatment
Measurement kind: P5 Activity (%)
Express the result in % but write the number alone.

Qu. Consider the molecule COc1ccnc(C(=O)N[C@@H](C)C(=O)O[C@@H](C)C(c2ccc(F)cc2)c2ccc(F)cc2)c1OC(C)=O [CR1, Florypicoxamid, reference compound] and give its recorded P5 Activity.
Ans. 100

Next:
Qu. Provide P5 Activity value for the following molecule: CCCCCCCC(C)OC(=O)[C@H](C)NC(=O)c1cccc(NC=O)c1O (some centres unmarked)
Ans. 98

Qu. Supply reported P5 Activity belonging to this molecule: `CC(C)C(=O)OCOc1c(NC=O)cccc1C(=O)N[C@@H](C)C(=O)O[C@@H](C)C(c1ccc(F)cc1)c1ccc(F)cc1`
Ans. 100

Qu. Input `CCCCCCC[C@H](C)OC(=O)[C@H](C)NC(=O)c1cccc(NC=O)c1O` , output reported P5 Activity.
Ans. 98

Qu. Check the records and state P5 Activity for `C[C@H](NC(=O)c1cccc(NC=O)c1O)C(=O)O[C@@H](C)C(c1ccc(F)cc1)c1ccc(F)cc1`
Ans. 99
